Experimental target: mutant B-RAF (Homo sapiens, UniProt P15056, V600E)
Construct: purchased Upstate (Charlottesville, Va.)
Sequence (P15056 whole entry V600E): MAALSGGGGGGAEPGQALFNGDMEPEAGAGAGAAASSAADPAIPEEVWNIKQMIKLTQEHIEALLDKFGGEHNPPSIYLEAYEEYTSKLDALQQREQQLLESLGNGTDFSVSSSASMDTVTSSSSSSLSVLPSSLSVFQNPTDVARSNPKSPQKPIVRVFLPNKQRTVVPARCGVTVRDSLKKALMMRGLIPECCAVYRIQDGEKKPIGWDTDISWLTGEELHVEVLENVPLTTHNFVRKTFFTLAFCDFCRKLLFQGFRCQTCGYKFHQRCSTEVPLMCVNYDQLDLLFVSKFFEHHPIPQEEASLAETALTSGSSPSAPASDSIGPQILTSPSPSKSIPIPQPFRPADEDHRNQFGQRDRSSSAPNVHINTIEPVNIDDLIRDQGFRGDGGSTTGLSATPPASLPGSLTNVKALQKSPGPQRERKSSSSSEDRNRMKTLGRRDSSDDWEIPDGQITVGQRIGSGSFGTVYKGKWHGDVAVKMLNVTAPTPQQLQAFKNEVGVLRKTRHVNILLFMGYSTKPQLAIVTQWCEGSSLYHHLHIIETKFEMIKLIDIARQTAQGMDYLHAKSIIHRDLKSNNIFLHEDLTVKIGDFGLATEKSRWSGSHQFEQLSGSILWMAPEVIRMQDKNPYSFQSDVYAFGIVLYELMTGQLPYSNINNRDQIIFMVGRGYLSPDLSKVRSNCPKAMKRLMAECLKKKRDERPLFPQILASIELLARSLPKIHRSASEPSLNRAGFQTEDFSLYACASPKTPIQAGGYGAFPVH
Method summary: Measurement of RAF activity (MEK-1 phosphorylation)
Format: biochemical
Run parameters: 50 μM ATP, MEK-1 substrate; read-out: Mut-B-Raf IC50
Description: Materials: The RAF kinases and the anti-phospho MEK1/2 antibody were from Upstate (Charlottesville, Va.). The RAF substrate used was full length N-terminal GST-MEK-1, which was expressed in E. coli and purified in-house by HPLC. All proteins were aliquoted and stored at −80° C. Superblock™ in phosphate buffered saline (PBS) blocking reagent was form Pierce (cat. #37515). ATP was from Roche (cat. # 19035722). Alkaline Phosphatase-tagged goat anti-rabbit antibody was from Pierce (cat. # 31340). […]
Measured quantity: pIC50
One number for each entry, as −log10 of the molar value.

Study these solved cases before continuing.
In: Hello, please tell me recorded pIC50 for this one: Cn1ccc(S(=O)(=O)N2CCC[C@@H](Nc3nccc(-c4c(-c5cccc(O)c5)nc5occn45)n3)C2)n1
Out: 8.10

In: Hello, please tell me recorded pIC50 for this one: Cn1ccc(S(=O)(=O)N2CCC[C@@H](Nc3nccc(-c4c(-c5ccc(F)c(OCOP(=O)(O)O)c5)nc5occn45)n3)C2)n1
Out: 7.55

In: Hello, please tell me recorded pIC50 for this one: O=P(O)(O)OCOc1cccc(-c2nc3sccn3c2-c2ccnc(NC3CCN(S(=O)(=O)c4ccc(Cl)cc4)CC3)n2)c1
Out: 6.39

In: Hello, please tell me recorded pIC50 for this one: Cn1ccc(S(=O)(=O)N2CCC[C@@H](Nc3nccc(-c4c(-c5cccc(OCOP(=O)(O)O)c5)nc5occn45)n3)C2)n1
Out: 5.53

Give measured pIC50 for every item shown.
1. O=P(O)(O)OCOc1cccc(-c2nc3sccn3c2-c2ccnc(N[C@@H]3CCCN(S(=O)(=O)c4ccc(Cl)cc4)C3)n2)c1
2. O=S(=O)(C1CC1)N1CCC(Nc2nccc(-c3c(-c4cccc(O)c4)nc4occn34)n2)CC1

Out:
6.43
7.32

###

Method summary: Equilibrium solubility at varying pH (shake flask)
Assay type: physicochemical
Run parameters: aqueous buffer (50 mM lactate buffer), 25 °C, aqueous buffer, thermodynamic from solid; pH 3.0
Method: Solubility of the compounds was determined by the traditional shake flask method. Aliquots of solid compounds were mixed with an appropriate buffer of the desired pH and equilibrated by shaking at room temperature (˜25° C.) for 6-24 hours. […] After equilibration, samples were filtered through a 0.45 um filter and analyzed by HPLC/UV against the calibration curves of standard solution.
Measured quantity: solubility (mg/mL)
Answers are plain numbers, in mg/mL.

In: Hello, please tell me recorded solubility for this one: Cn1ccc(S(=O)(=O)N2CCC[C@@H](Nc3nccc(-c4c(-c5cccc(O)c5)nc5occn45)n3)C2)n1 [Compound 17]
Out: 0.01

###

Would you mind telling me the reported GI50 of each entry?
Test system: DLD-1
Method summary: Cell growth inhibition assay (MTS)
Format: cell-based
Run parameters: Homo sapiens; DLD-1, 72 hours
I'd appreciate it if you included the unit after the number.

Study these solved cases before continuing.
In: Supply GI50 measured with DLD-1 for O=S(=O)(c1ccc(Cl)cc1)N1CCC[C@@H](Nc2nccc(-c3c(-c4cccc(O)c4)nc4occn34)n2)C1 .
Out: 15.4 µM

In: Supply GI50 measured with DLD-1 for Cn1ccc(S(=O)(=O)N2CCC[C@@H](Nc3nccc(-c4c(-c5cccc(O)c5)nc5sccn45)n3)C2)n1 .
Out: 3 µM

In: Supply GI50 measured with DLD-1 for O=S(=O)(c1ccc(F)cc1)N1CCC(Nc2nccc(-c3c(-c4cccc(O)c4)nc4occn34)n2)CC1 .
Out: 1.62 µM

---
In: Supply GI50 measured with DLD-1 for Cn1ccc(S(=O)(=O)N2CCC[C@@H](Nc3nccc(-c4c(-c5ccc(F)c(O)c5)nc5occn45)n3)C2)n1 .
Out: 5.92 µM
